Answer each item with its documented IC50.
System under test: human NaP2b (SLC34A2) (Homo sapiens)
Construct: host or cells: HEK293
Sequence (O95436 1-690): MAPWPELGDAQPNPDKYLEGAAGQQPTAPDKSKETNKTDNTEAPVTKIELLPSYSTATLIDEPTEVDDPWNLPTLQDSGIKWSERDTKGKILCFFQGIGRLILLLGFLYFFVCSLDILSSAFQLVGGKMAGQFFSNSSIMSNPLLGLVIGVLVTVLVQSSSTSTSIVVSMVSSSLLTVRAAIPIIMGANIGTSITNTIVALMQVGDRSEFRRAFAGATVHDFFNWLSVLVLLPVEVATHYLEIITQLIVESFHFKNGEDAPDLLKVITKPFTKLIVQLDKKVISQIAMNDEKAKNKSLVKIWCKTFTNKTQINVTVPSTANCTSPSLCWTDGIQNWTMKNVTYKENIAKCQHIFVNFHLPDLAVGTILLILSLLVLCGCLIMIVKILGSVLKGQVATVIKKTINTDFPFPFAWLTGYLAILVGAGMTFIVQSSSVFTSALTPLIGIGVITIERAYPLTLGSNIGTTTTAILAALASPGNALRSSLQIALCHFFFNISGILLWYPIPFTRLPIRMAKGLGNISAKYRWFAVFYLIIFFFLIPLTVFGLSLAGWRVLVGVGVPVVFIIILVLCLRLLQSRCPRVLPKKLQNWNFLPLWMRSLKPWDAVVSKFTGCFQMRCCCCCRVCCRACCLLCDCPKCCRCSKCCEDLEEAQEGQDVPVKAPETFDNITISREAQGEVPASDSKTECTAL
Experiment summary: Inhibition of NaP2b-mediated Pi (33P) uptake in transfected HEK293 cells, human NaP2b
Assay type: cell-based
Condition info: HEK293 cells transfected with human NaP2b, 100 uM phosphate, 0.1 nM to 30 uM, read-out: pIC50 range for human NaP2b (converted)

CN(CCN1CCC[C@H]1C(=O)N(C)CCOCCOCCOCCC(=O)OC(C)(C)C)C(=O)c1cccc(C(=O)Nc2ccc(N3CCCCC3)cc2-c2cc(C(=O)N[C@H]3CCCc4ccccc43)ccn2)c1 : 1000 to 7940 nM

Dear colleague, could you please provide IC50 for the molecules listed below?
1. CCN(CC)c1ccc(NC(=O)c2cccc(CCCOCCOCCOCCOCCC(=O)N(C)CCOCCOCCOCCOCCOCCOCCOC)c2)c(-c2cc(C(=O)NCc3cccc(C(F)(F)F)c3)ccn2)c1
2. CCN(CC)c1ccc(NC(=O)c2cccc(CCCOCCOCCOCCOCCNS(=O)(=O)c3ccc(C(=O)N4CCN(CCOCCOCCOCCOCCOCCOCCOC)C(=O)C4)cc3)c2)c(-c2cc(C(=O)NCc3cccc(C(F)(F)F)c3)ccn2)c1

1: 1000 to 7940 nM; 2: 1000 to 7940 nM

Dear colleague, could you please provide IC50 for the molecules listed below?
1. CCN(CC)c1ccc(NC(=O)c2cccc(CCCOCCOCCOCCOCCNS(=O)(=O)c3ccc(C(=O)N(C)CCOCCOCCOCCOCCOCCOCCOC)cc3)c2)c(-c2cc(C(=O)NCc3cccc(C(F)(F)F)c3)ccn2)c1
2. CN(CCN1CCOCC1)C(=O)c1cccc(C(=O)Nc2ccc(N3CCCCC3)cc2-c2cc(C(=O)N[C@H]3CCCc4ccccc43)ccn2)c1

1. 1000 to 7940 nM
2. < 1000 nM
